# tested-target: Cytochrome P450 3A4 (Homo sapiens, UniProt P08684)
# Sequence (P08684 whole entry): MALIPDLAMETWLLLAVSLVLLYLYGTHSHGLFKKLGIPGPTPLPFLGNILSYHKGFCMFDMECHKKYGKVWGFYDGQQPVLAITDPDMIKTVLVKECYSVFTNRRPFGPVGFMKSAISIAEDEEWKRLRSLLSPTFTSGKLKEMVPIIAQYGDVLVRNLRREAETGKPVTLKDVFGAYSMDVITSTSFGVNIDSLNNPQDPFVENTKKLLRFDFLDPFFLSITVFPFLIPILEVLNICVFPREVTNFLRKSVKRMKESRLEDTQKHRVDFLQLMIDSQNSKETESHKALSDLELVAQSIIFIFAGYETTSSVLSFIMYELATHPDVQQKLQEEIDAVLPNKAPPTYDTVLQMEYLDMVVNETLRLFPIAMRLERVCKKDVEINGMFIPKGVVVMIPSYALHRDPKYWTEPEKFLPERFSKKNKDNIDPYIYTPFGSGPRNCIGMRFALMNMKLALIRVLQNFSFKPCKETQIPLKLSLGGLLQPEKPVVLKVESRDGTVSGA
# assay: Inhibition of CYP3A4M in human liver microsomes using midazolam as substrate measured after 10 mins in presence of NADPH
# Format: ADME, Microsome
readout-name: IC50

Could you tell me which IC50 is on file for Cc1cc(C)cc(C(N=[N+]=[N-])c2nc(SC(C)C)[nH]c(=O)c2C)c1 (stereo unspecified) ?
> 50 µM

---

# assay: Selectivity index, ratio of CC50 for cytotoxicity against human MT4 cells assessed as reduction in cell viability by MTT assay to EC50 for anti-HIV activity against wild type HIV-1 IIIB infected in human MT4 cells assessed as inhibition of virus-induced cytopathic effect by MTT assay
# Format: toxicity, cell-based
# condition-description: read-out: Ratio CC50/EC50
So I've got a bunch of compounds here, and I need their selectivity ratio values.

{"compound": "Cc1c(C(N=[N+]=[N-])c2ccccc2)nc(SC(C)C)[nH]c1=O (stereo not given)", "selectivity ratio": "> 7190"}
{"compound": "COc1cc(OC)cc(C(N=[N+]=[N-])c2nc(SC(C)C)[nH]c(=O)c2C(C)C)c1 (stereo not given)", "selectivity ratio": 55}
{"compound": "CC(C)Sc1nc(C(N=[N+]=[N-])c2ccccc2)c(C(C)C)c(=O)[nH]1 (stereo not given)", "selectivity ratio": "> 780"}
{"compound": "Cc1c(C(N=[N+]=[N-])c2ccc3ccccc3c2)nc(SC(C)C)[nH]c1=O (stereo not given)", "selectivity ratio": 11}

API: the following record is the query input.
Could you tell me which selectivity ratio is on file for CC(C)Sc1nc(C(N=[N+]=[N-])c2ccc(Cl)cc2)c(C(C)C)c(=O)[nH]1 (stereo not given) ?
> 367

# credit: ChEMBL document CHEMBL5352488
